Each record here notes measured IC50.
Molecular target: human Werner helicase (WRN-BV08, Uniprot Q14191, amino acids 517-1235 with L1074F point mutation) (Homo sapiens, UniProt Q14191, L1074F)
Construct: Uniprot Q14191, amino acids 517-1235 with L1074F point mutation; TEV-cleavable 8×His (C, cleaved yes); made in house; host or cells: Sf9 insect cells (baculovirus)
Sequence (Q14191 with tags, fused parts or gaps L1074F limits assumed): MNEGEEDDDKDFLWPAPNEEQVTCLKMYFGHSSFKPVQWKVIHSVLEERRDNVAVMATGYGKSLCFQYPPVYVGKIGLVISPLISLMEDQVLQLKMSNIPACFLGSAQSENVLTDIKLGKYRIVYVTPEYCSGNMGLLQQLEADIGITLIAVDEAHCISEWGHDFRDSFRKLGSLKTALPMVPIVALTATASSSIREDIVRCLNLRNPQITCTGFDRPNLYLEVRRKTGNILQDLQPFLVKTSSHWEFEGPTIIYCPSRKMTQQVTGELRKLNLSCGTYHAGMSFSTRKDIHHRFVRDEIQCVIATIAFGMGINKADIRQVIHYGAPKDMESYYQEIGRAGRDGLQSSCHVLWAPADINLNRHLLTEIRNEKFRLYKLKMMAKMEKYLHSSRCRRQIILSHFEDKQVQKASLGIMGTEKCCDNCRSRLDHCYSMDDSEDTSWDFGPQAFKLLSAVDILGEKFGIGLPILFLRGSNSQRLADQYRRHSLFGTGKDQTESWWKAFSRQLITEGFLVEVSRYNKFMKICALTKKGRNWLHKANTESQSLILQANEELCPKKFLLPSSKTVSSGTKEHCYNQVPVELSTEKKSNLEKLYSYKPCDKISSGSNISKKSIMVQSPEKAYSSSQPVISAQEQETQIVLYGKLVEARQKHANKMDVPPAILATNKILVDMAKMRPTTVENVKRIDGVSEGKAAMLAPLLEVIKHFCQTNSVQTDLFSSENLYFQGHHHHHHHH
Assay: WRN (BV08) ADP-Glo Assay
Format: biochemical
Conditions: 0.15 nM WRN, 5 μM ATP, 0.1 nM DNA duplex, 15 min preincubation, 60 min at 25° C., pH 7.5, 1% DMSO; read-out: ADP-Glo_hWRN_IC50

Illustrative cases are given below, each with its answer.
[[record]]
molecule = "COc1cc(CN(C(=O)C(C(=O)N(C)C)c2ccc(-c3ccc(F)c(F)c3)cc2F)C2C=CS(=O)(=O)C2)ccn1 (single isomer, unassigned) [I-577]"
recorded_value = "< 0.5 µM"

[[record]]
molecule = "O=C(C1CCCN(c2ccccc2)C1)N(Cc1ccncc1)C1C=CS(=O)(=O)C1 (stereo not shown)"
recorded_value = "> 50 µM"

[[record]]
molecule = "O=C(C1CNc2cc(-c3ccc(F)cc3)ccc21)N(Cc1ccncc1)C1C=CS(=O)(=O)C1 (stereo not shown)"
recorded_value = "0.5 to 5 µM"


Consider the additional molecule presented here.
Could you tell me which IC50 is on file for CC1CC1c1ccc(CC(=O)N(Cc2ccncc2)C2C=CS(=O)(=O)C2)cc1 (stereo not shown) ?
5 to 10 µM

====

Listing of recorded pIC50 by entry.
Biological target: human Werner helicase (WRN-BV08, Uniprot Q14191, amino acids 517-1235 with L1074F point mutation) (Homo sapiens, UniProt Q14191, L1074F)
Construct: Uniprot Q14191, amino acids 517-1235 with L1074F point mutation; TEV-cleavable 8×His (C, cleaved yes); made in house; host or cells: Sf9 insect cells (baculovirus)
Assay: WRN (BV08) ADP-Glo Assay
Type: biochemical
Details: 0.15 nM WRN, 5 μM ATP, 0.1 nM DNA duplex, 15 min preincubation, 60 min at 25° C., pH 7.5, 1% DMSO; read-out: ADP-Glo_hWRN_IC50
pIC50: −log10 of the molar value.

The examples below pair each entry with its known result.
[[record]]
compound = "CC(C)(O)c1ccc(CN(C(=O)Cc2ccc(S(F)(F)(F)(F)F)cc2)C2C=CS(=O)(=O)C2)cc1 (stereo not shown)"
metric_name = "pIC50"
recorded_value = "5.30 to 6.30"

[[record]]
compound = "O=C(Cc1ccc(-c2ccc(F)cc2)cc1CO)N(Cc1ccncc1)C1C=CS(=O)(=O)C1 (stereo not shown)"
metric_name = "pIC50"
recorded_value = "4.30 to 5.00"

[[record]]
compound = "COC(C(=O)N(Cc1ccncc1)C1C=CS(=O)(=O)C1)c1ccc(-c2ccc(F)cc2)cc1 (single isomer, unassigned) [I-476]"
metric_name = "pIC50"
recorded_value = "< 4.30"

[[record]]
compound = "COc1cc(CN(C(=O)C(c2ccc(-c3ccc(F)c(F)c3)cc2F)n2cc(OC(F)F)cn2)[C@@H]2C=CS(=O)(=O)C2)ccn1 (stereo partly shown) [I-695]"
metric_name = "pIC50"
recorded_value = "> 6.30"

[[record]]
compound = "COc1cc(CN(C(=O)C(OCc2cnn(C)c2)c2ccc(-c3ccc(F)c(F)c3)cc2F)[C@@H]2C=CS(=O)(=O)C2)ccn1 (stereo partly shown) [I-745]"
metric_name = "pIC50"
recorded_value = "5.30 to 6.30"


Tell me the measured pIC50 of COc1cc(CN(C(=O)Cn2ncc(-c3ccccc3)c2C)[C@@H]2C=CS(=O)(=O)C2)ccn1 , please.
5.30 to 6.30

I'd like to know its pIC50. The compound in question is O=C(Cc1ccc(N2CCCC2)cc1)N(Cc1ccncc1)C1C=CS(=O)(=O)C1 (stereo not shown)
< 4.30

====

Biological target: human Werner helicase (WRN-BV08, Uniprot Q14191, amino acids 517-1235 with L1074F point mutation) (Homo sapiens, UniProt Q14191, L1074F)
Construct: Uniprot Q14191, amino acids 517-1235 with L1074F point mutation; TEV-cleavable 8×His (C, cleaved yes); made in house; host or cells: Sf9 insect cells (baculovirus)
Assay: WRN (BV08) ADP-Glo Assay
Format: biochemical
Settings: 0.15 nM WRN, 5 μM ATP, 0.1 nM DNA duplex, 15 min preincubation, 60 min at 25° C., pH 7.5, 1% DMSO; read-out: ADP-Glo_hWRN_IC50
pIC50: −log10 of the molar value.
METRIC_NAME: pIC50

Example entries and their recorded answers appear below.
[[record]]
compound = "CC(C)(O)c1cc(CN(C(=O)Cn2cc(-c3ccc(C(F)(F)F)cc3)cn2)C2C=CS(=O)(=O)C2)ccn1 (single isomer, unassigned)"
recorded_value = "> 6.30"

[[record]]
compound = "COc1cc(CN(C(=O)Cc2ccc(S(F)(F)(F)(F)F)cc2)C2C=CS(=O)(=O)C2)ccn1 (stereo not shown)"
recorded_value = "> 6.30"

[[record]]
compound = "CN(C)C(=O)c1ccc(CN(C(=O)Cc2ccc(-c3ccc(F)c(F)c3)cc2F)C2C=CS(=O)(=O)C2)cc1 (stereo not shown)"
recorded_value = "5.30 to 6.30"


Next item in the queue.
Bench note: what pIC50 did COc1cc(CN(C(=O)Cc2ccc(C3CC(F)C3)cc2F)[C@@H]2C=CS(=O)(=O)C2)ccn1 (stereo partly shown) show?
5.30 to 6.30

====

Molecular target: human Werner helicase (WRN-BV08, Uniprot Q14191, amino acids 517-1235 with L1074F point mutation) (Homo sapiens, UniProt Q14191, L1074F)
Construct: Uniprot Q14191, amino acids 517-1235 with L1074F point mutation; TEV-cleavable 8×His (C, cleaved yes); made in house; host or cells: Sf9 insect cells (baculovirus)
Assay: WRN (BV08) ADP-Glo Assay
Type: biochemical
Details: 0.15 nM WRN, 5 μM ATP, 0.1 nM DNA duplex, 15 min preincubation, 60 min at 25° C., pH 7.5, 1% DMSO; read-out: ADP-Glo_hWRN_IC50
pIC50: −log10 of the molar value.
METRIC_NAME: pIC50

Illustrative cases are given below, each with its answer.
[[record]]
compound = "O=C(c1ccc(CN(C(=O)Cc2ccc(-c3ccc(F)c(F)c3)cc2F)C2C=CS(=O)(=O)C2)cc1)N1CCOCC1 (stereo not shown)"
recorded_value = "5.30 to 6.30"

[[record]]
compound = "COc1cc(CN(C(=O)C(OCCS(C)(=O)=O)c2ccc(-c3ccc(F)c(F)c3)cc2F)[C@@H]2C=CS(=O)(=O)C2)ccn1 (stereo partly shown) [I-707]"
recorded_value = "5.30 to 6.30"

[[record]]
compound = "COc1cc(CN(C(=O)C(OC)c2ccc(-c3ccc(F)c(F)c3)cc2F)C2C=CS(=O)(=O)C2)ccn1 (stereo not shown)"
recorded_value = "> 6.30"


# input for lookup
// lookup pIC50 for CC(C(=O)N(Cc1ccnc(C(C)(C)O)c1)[C@@H]1C=CS(=O)(=O)C1)n1cc(-c2ccc(F)cc2)cn1 (stereo partly shown)
5.30 to 6.30

====

Molecular target: human Werner helicase (WRN-BV08, Uniprot Q14191, amino acids 517-1235 with L1074F point mutation) (Homo sapiens, UniProt Q14191, L1074F)
Construct: Uniprot Q14191, amino acids 517-1235 with L1074F point mutation; TEV-cleavable 8×His (C, cleaved yes); made in house; host or cells: Sf9 insect cells (baculovirus)
Test: WRN (BV08) ADP-Glo Assay
Assay type: biochemical
Conditions: 0.15 nM WRN, 5 μM ATP, 0.1 nM DNA duplex, 15 min preincubation, 60 min at 25° C., pH 7.5, 1% DMSO; read-out: ADP-Glo_hWRN_IC50
pIC50: −log10 of the molar value.
Each entry below carries its reported pIC50.

These recorded examples may help you get a feel for the data.
[[record]]
compound = "CS(=O)(=O)c1ccc(CC(=O)N(Cc2ccncc2)C2C=CS(=O)(=O)C2)cc1 (stereo not shown)"
recorded_value = "< 4.30"

[[record]]
compound = "CC(C(=O)N(Cc1ccnc(C(C)(C)O)c1)[C@@H]1C=CS(=O)(=O)C1)n1cc(-c2cc(F)c(F)c(F)c2)cn1 (single isomer, unassigned)"
recorded_value = "> 6.30"


// query pIC50 value for entry O=C(C(c1ccc(Cl)cc1)c1ccc(Cl)cc1)N(Cc1ccncc1)C1C=CS(=O)(=O)C1 (stereo not shown)
< 4.30

For the compound shown here, O=C(Cc1ccc(-c2cccc(F)c2F)cc1)N(Cc1ccncc1)C1C=CS(=O)(=O)C1 (stereo not shown) , give the reported pIC50.
5.00 to 5.30

Consider the compound shown here: CC(C)(O)c1cc(CN(C(=O)Cc2ccc(-n3cccc3)cc2F)C2C=CS(=O)(=O)C2)ccn1 (single isomer, unassigned) [I-40] What is its recorded pIC50?
> 6.30

For the compound CS(=O)(=O)c1ccccc1CN(C(=O)Cc1ccc(-n2cccc2)cc1)C1C=CS(=O)(=O)C1 (stereo not shown) , what pIC50 is on record?
4.30 to 5.00

GET /values?readout=pIC50&item= O=C(CCc1cc2ccccc2s1)N(Cc1ccncc1)C1C=CS(=O)(=O)C1 (stereo not shown)
< 4.30

Source of measurements: patent US20260297070A1
